# TESTED SYSTEM: proteinase-activated receptor 2 (PAR-2) (UniProt P55085)
# Sequence (P55085 37-397 limits assumed): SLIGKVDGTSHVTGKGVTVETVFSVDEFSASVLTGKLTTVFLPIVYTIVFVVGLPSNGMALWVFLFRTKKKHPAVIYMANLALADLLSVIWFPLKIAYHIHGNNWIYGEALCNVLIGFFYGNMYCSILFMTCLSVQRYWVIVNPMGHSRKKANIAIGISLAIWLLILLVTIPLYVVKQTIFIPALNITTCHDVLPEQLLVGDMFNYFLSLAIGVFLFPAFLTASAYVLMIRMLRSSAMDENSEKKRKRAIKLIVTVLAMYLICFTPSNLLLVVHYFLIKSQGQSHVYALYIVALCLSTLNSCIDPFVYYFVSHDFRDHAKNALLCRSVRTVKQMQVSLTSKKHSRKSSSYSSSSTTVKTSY
# ASSAY INFO: cell-based or functional assay
Measured PAR-2 Cell Based Assay ED50 accompanies every entry in the list below.
All answers are understood in nM, so give the number only.

Q38H/I41S/D60bT/F60eS/Y60gW/F97D/ins97aV/T98P/F99L/C122S/G151H/Q175L/Q192E (enzyme) VVGGTDADEGEWPWQVSLHALGHGHSCGASLISPNWLVSAAHCYIDTRGSRWSDPTQWTAFLGLHDQSQRSAPGVQERRLKRIISHPFFNDDVPLDYDIALLELEKPAEYSSMVRPISLPDASHVFPAGKAIWVTGWGHTQYGGTHALILQKGEIRVINQTTCENLLPQLITPRMMCVGFLSGGVDSCEGDSGGPLSSVEADGRIFQAGVVSWGDGCAQRNKPGVYTRLPLFRDWIKENTGV :: 1800
Q38H/I41A/D60bV/F60eR/Y60gW/F97T/ins97aE/T98G/F99L/C122S/G151H/Q175L/Q192D (enzyme) VVGGTDADEGEWPWQVSLHALGHGHACGASLISPNWLVSAAHCYIDVRGRRWSDPTQWTAFLGLHDQSQRSAPGVQERRLKRIISHPFFNDTEGLDYDIALLELEKPAEYSSMVRPISLPDASHVFPAGKAIWVTGWGHTQYGGTHALILQKGEIRVINQTTCENLLPQLITPRMMCVGFLSGGVDSCDGDSGGPLSSVEADGRIFQAGVVSWGDGCAQRNKPGVYTRLPLFRDWIKENTGV :: 430

Now examine the next entry.
Challenge: What does the data say about its PAR-2 Cell Based Assay ED50? Entry: Q38H/I41A/D60bV/F60eR/Y60gW/D96I/F97Y/ins97aN/T98G/F99L/C122S/G151N/Q175L/Q192D (enzyme) VVGGTDADEGEWPWQVSLHALGHGHACGASLISPNWLVSAAHCYIDVRGRRWSDPTQWTAFLGLHDQSQRSAPGVQERRLKRIISHPFFNIYNGLDYDIALLELEKPAEYSSMVRPISLPDASHVFPAGKAIWVTGWGHTQYGGTNALILQKGEIRVINQTTCENLLPQLITPRMMCVGFLSGGVDSCDGDSGGPLSSVEADGRIFQAGVVSWGDGCAQRNKPGVYTRLPLFRDWIKENTGV
Response given: 450
